conditions: Ebola virus entry assay, ratio channel
Active and inactive are the calls of the source. No rule for the calls is given here.
Result type: outcome

CN1C(=O)c2ccccc2C1=O :: inactive
Nc1ccc(Sc2ccc(N)cc2)cc1 :: inactive
CC(C)NCC(O)c1ccc([N+](=O)[O-])cc1 (configuration not stated) :: inactive
CCO/N=C(\CC)C1=C(O)CC(c2c(C)cc(C)cc2C)CC1=O (configuration not stated) :: inactive
CS(=O)(=O)Nc1ccc([N+](=O)[O-])cc1Oc1ccccc1 :: inactive
COc1ccccc1O :: inactive

Which measured outcome value corresponds to `OCc1c[nH]c2ccccc12` ?
inactive

###

system: UISO; experiment: qHTS assay to identify novel small-molecules to repurpose for Merkel cell carcinoma treatment (AID 1296009); conditions: MCC and control cell lines, CellTiter-Glo viability, 72 h; series mostly up to 46 µM; also: nearly all actives have a fitted effect of over 60% in size; also: potency is read from the fitted curve at half-maximal effect
Inconclusive results are not listed. Calls of active or inactive are those of the source. Calls come from the whole dose curve; as a rule, active = well fitted inhibition curve with a large enough effect; inconclusive = small, poorly fitted or top-dose-only effect; inactive = flat fitted curve, though single readings scatter.
Result type: Potency

Look over these answered cases.
C[C@H]([C@H](O)CCC(C)(C)O)[C@H]1CC[C@@]2(O)C3=CC(=O)[C@@H]4C[C@@H](O)[C@@H](O)C[C@]4(C)[C@@H]3CC[C@]12C :: inactive
CCOC(=O)c1c(C(C#N)=CN)c2ccc(Cl)c(Cl)c2n1C :: inactive
CC(C)[C@]12O[C@@H]1[C@@H]1O[C@]13[C@]1(O[C@H]1C[C@@H]1C4=C(CC[C@@]13C)C(=O)OC4)[C@H]2O :: inactive
O=S(=O)(F)Cc1ccccc1 :: inactive
Oc1ccc2c3c1O[C@H]1[C@@H](O)C=C[C@H]4[C@@H](C2)NCC[C@@]341 :: inactive

Record Potency for all entries; do not skip any.
1. O=C(NCC1CCOCC1)c1cnc(Nc2ccc(Cl)cc2Cl)nc1C(F)(F)F
2. CC[C@@H]1[C@@H](C)O[C@@](O)([C@@H](C)[C@H](O)[C@H](C)[C@H]2OC(=O)C=CC=C[C@@H](C)[C@@H]([C@@H](C)[C@@H](O)[C@H](C)[C@@]3(O)C[C@H](O[C@H]4C[C@H](O)[C@H](O)[C@H](C)O4)[C@H](CC)[C@@H](C)O3)OC(=O)C=CC=C[C@@H]2C)C[C@H]1O[C@H]1C[C@H](O)[C@H](O)[C@H](C)O1
3. O=C1CCC[C@@H]2[C@H]3CCCN4CCC[C@@H](CN12)[C@@H]34
4. CC(C)(C)[C@]1(O)C[C@@H]2OC(=O)C[C@@]23C(=O)O[C@@H]2OC(=O)[C@H](O)C213 (stereo partly specified)

inactive
8.33 µM (active)
inactive
inactive
